SYSTEM_UNDER_TEST: immobilized GNAmaize
EXPERIMENT_NOTES: SPR steady-state affinity of oligosaccharides with immobilized GNAmaize
Design: species or system Zea mays
RUN_CONDITIONS: apparent, N.D. = not detectable, binding detected = KD could not be determined
OBSERVED_PROPERTY: KD, immobilized GNAmaize

[[record]]
compound = "CC(=O)N[C@H]1[C@H](O[C@H]2[C@H](O)[C@@H](NC(C)=O)C(O)O[C@@H]2CO)O[C@H](CO)[C@@H](O[C@@H]2O[C@H](CO[C@H]3O[C@H](CO)[C@@H](O)[C@H](O)[C@@H]3O[C@@H]3O[C@H](CO)[C@@H](O)[C@H](O)[C@H]3NC(C)=O)[C@@H](O)[C@H](O[C@H]3O[C@H](CO)[C@@H](O)[C@H](O)[C@@H]3O[C@@H]3O[C@H](CO)[C@@H](O)[C@H](O)[C@H]3NC(C)=O)[C@@H]2O)[C@@H]1O (stereo partly shown)"
observed_property = "KD, immobilized GNAmaize"
result = "binding detected^b"

[[record]]
compound = "OC[C@H]1O[C@H](O[C@H]2[C@H](O)[C@@H](CO)OC(O)[C@H]2O)[C@@H](O)[C@@H](O)[C@@H]1O (stereo partly drawn) [(α1,3-man)2]"
observed_property = "KD, immobilized GNAmaize"
result = "did not bind"

[[record]]
compound = "CC(=O)N[C@H]1[C@H](O[C@@H]2C(O)O[C@H](CO)[C@@H](O)[C@@H]2O)O[C@H](CO)[C@@H](O)[C@@H]1O (stereo partly shown) [GlcNAcβ1,2Man, GlcNAcß1,2Man]"
observed_property = "KD, immobilized GNAmaize"
result = "binding detected^b"

[[record]]
compound = "OC[C@H]1O[C@H](O[C@@H]2[C@@H](O[C@@H]3C(O)O[C@H](CO)[C@@H](O)[C@@H]3O)O[C@H](CO)[C@@H](O)[C@@H]2O)[C@@H](O)[C@@H](O)[C@@H]1O (stereo partly drawn) [(α1,2-man)3]"
observed_property = "KD, immobilized GNAmaize"
result = "did not bind"


----------
SYSTEM_UNDER_TEST: UniProtKB P30617
Sequence (P30617 24-128): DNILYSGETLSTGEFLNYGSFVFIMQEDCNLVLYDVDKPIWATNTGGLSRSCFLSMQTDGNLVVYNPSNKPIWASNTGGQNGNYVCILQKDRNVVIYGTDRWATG
Listing of entries alongside the reported Kd.

[[record]]
molecule = "OC[C@H]1O[C@H](O[C@H]2[C@H](O)[C@@H](CO)OC(O)[C@H]2O)[C@@H](O)[C@@H](O)[C@@H]1O (some centres unmarked)"
observed_property = "Kd"
result = "> 2000 µM"


Kindly review the next molecule as well.
# lookup: Kd of OC[C@H]1O[C@H](O[C@@H]2[C@@H](O[C@@H]3C(O)O[C@H](CO)[C@@H](O)[C@@H]3O)O[C@H](CO)[C@@H](O)[C@@H]2O)[C@@H](O)[C@@H](O)[C@@H]1O (some centres unmarked)
> 1000 µM
